experiment: Kinetic solubility in Hepes buffer at 500 uM at pH 7.4 after 90 mins; format: physicochemical; conditions: read-out: Kinetic_solubility
solubility kinetic at 1.5 h, 500 µM values by entry
endpoint.name: solubility kinetic at 1.5 h, 500 µM (µM)

compound | recorded.measurement
C=CC(=O)N1CCC[C@@H](n2nc(-c3ccc4ccccc4c3)c3c(N)ncnc32)C1 | 248
C=CC(=O)N1CCC[C@@H](n2nc(-c3ccc(Oc4ccccc4)cc3)c3c(N)ncnc32)C1 [IBRUTINIB] | 57
C=CC(=O)N1CCC[C@@H](n2nc(-c3cnc4[nH]ccc4c3)c3c(N)ncnc32)C1 | 457
C=CC(=O)N1CCC[C@@H](n2nc(-c3cn(C)c4ccccc34)c3c(N)ncnc32)C1 | 364
C=CC(=O)N1CCC[C@@H](n2nc(-c3cccc4ccccc34)c3c(N)ncnc32)C1 | 38
C=CC(=O)Nc1cccc(Nc2nc(Nc3ccc(N4CCN(C(C)=O)CC4)cc3OC)ncc2C(F)(F)F)c1 [ROCILETINIB] | 10
C=CC(=O)Nc1cc(Nc2nccc(-c3cn(C)c4ccccc34)n2)c(OC)cc1N(C)CCN(C)C [OSIMERTINIB] | 265
C=CC(=O)N1CCC[C@@H](n2nc(-c3ccccc3)c3c(N)ncnc32)C1 | 461
C=CC(=O)N1CCC[C@@H](n2nc(-c3cccc(C(F)(F)F)c3)c3c(N)ncnc32)C1 | 427

* * *

test: Half life in RjOrl:SWISS (CD1) mouse plasma at 2 mg/kg, iv; type: ADME, organism-based
endpoint.name: half-life (min)

chemical.structure | endpoint.name | recorded.measurement
C=CC(=O)N1CCC[C@@H](n2nc(-c3cn(C)c4ccccc34)c3c(N)ncnc32)C1 | half-life | 36

* * *

remaining at 1 h, 5 µM values by entry
test: Metabolic stability in human plasma at 5 uM incubated for 1 hr by LC-MS method; format: ADME, cell-free; settings: read-out: Stability

compound | unit.abbrev | remaining at 1 h, 5 µM
C=CC(=O)N1CCC[C@@H](n2nc(-c3cccc(C(F)(F)F)c3)c3c(N)ncnc32)C1 | % | 96
C=CC(=O)Nc1cccc(Nc2nc(Nc3ccc(N4CCN(C(C)=O)CC4)cc3OC)ncc2C(F)(F)F)c1 [ROCILETINIB] | % | 78
C=CC(=O)N1CCC[C@@H](n2nc(-c3cnc4[nH]ccc4c3)c3c(N)ncnc32)C1 | % | 98
C=CC(=O)N1CCC[C@@H](n2nc(-c3cn(C)c4ccccc34)c3c(N)ncnc32)C1 | % | 95
C=CC(=O)N1CCC[C@@H](n2nc(-c3cccc4ccccc34)c3c(N)ncnc32)C1 | % | 100
C=CC(=O)N1CCC[C@@H](n2nc(-c3ccc4ccccc4c3)c3c(N)ncnc32)C1 | % | 94
C=CC(=O)N1CCC[C@@H](n2nc(-c3ccccc3)c3c(N)ncnc32)C1 | % | 97
C=CC(=O)Nc1cc(Nc2nccc(-c3cn(C)c4ccccc34)n2)c(OC)cc1N(C)CCN(C)C [OSIMERTINIB] | % | 100
C=CC(=O)N1CCC[C@@H](n2nc(-c3ccc(Oc4ccccc4)cc3)c3c(N)ncnc32)C1 [IBRUTINIB] | % | 80

* * *

Epidermal growth factor receptor (Homo sapiens, UniProt P00533, L858R/T790M) measurements of IC50, listed per entry.
Sequence (P00533 25-1210 T790M/L858R limits assumed): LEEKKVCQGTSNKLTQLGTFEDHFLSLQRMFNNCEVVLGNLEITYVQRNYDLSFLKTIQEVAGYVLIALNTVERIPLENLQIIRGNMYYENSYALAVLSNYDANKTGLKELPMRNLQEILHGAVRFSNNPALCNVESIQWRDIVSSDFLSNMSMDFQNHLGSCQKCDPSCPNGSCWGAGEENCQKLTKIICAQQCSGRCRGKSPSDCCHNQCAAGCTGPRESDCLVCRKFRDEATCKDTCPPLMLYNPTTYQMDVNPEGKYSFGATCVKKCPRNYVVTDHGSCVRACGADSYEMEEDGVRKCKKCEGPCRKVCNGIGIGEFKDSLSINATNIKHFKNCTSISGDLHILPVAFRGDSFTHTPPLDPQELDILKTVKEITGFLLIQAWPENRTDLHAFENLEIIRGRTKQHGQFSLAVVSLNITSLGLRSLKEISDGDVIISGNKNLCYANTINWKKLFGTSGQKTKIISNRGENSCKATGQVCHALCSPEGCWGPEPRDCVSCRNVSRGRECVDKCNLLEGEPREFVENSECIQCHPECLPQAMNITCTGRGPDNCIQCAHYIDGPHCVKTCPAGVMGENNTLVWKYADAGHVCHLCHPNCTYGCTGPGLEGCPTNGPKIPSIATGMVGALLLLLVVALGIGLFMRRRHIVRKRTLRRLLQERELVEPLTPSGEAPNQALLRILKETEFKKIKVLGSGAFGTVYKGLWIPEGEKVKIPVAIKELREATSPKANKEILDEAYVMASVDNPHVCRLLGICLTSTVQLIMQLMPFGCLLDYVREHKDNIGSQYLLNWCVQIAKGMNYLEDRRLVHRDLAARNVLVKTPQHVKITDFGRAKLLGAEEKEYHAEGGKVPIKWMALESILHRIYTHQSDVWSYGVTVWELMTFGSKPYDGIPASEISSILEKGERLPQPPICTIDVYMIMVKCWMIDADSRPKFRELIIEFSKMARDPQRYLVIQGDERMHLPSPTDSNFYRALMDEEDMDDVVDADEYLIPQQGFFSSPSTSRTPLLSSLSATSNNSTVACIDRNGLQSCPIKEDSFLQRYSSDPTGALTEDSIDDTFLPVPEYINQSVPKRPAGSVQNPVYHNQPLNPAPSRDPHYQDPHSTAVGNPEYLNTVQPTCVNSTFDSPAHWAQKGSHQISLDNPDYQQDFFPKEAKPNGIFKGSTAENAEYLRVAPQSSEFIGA

chemical.structure | tested.target | unit.abbrev | reported.relation | IC50
C=CC(=O)N1CCC[C@@H](n2nc(-c3cccc(F)c3)c3c(N)ncnc32)C1 | Epidermal growth factor receptor (Homo sapiens, UniProt P00533, L858R/T790M) | nM | = | 230
CN(C)C/C=C/C(=O)N1CCC[C@@H](n2nc(-c3ccccc3)c3c(N)ncnc32)C1 | Epidermal growth factor receptor (Homo sapiens, UniProt P00533, L858R/T790M) | nM | = | 6600
C=CC(=O)N1CCC[C@@H](n2nc(C#CC3CCCC3)c3c(N)ncnc32)C1 | Epidermal growth factor receptor (Homo sapiens, UniProt P00533, L858R/T790M) | nM | = | 1400
C=CC(=O)N1CCC[C@@H](n2nc(-c3ccc(C(F)(F)F)cc3)c3c(N)ncnc32)C1 | Epidermal growth factor receptor (Homo sapiens, UniProt P00533, L858R/T790M) | nM | = | 270
CCC(=O)N1CCC[C@@H](n2nc(-c3cccc(C(F)(F)F)c3)c3c(N)ncnc32)C1 | Epidermal growth factor receptor (Homo sapiens, UniProt P00533, L858R/T790M) | nM | > | 10000
C=CC(=O)N1CCC[C@@H](n2nc(-c3ccc4ccccc4c3)c3c(N)ncnc32)C1 | Epidermal growth factor receptor (Homo sapiens, UniProt P00533, L858R/T790M) | nM | < | 1
CN(C)C/C=C/C(=O)N1CCC[C@@H](n2nc(-c3cccc(C(F)(F)F)c3)c3c(N)ncnc32)C1 | Epidermal growth factor receptor (Homo sapiens, UniProt P00533, L858R/T790M) | nM | = | 6100
C=CC(=O)N1CCC[C@@H](n2nc(-c3cn(C)c4ccccc34)c3c(N)ncnc32)C1 | Epidermal growth factor receptor (Homo sapiens, UniProt P00533, L858R/T790M) | nM | = | 3
C=CC(=O)N1CCC[C@@H](n2nc(C3CC3)c3c(N)ncnc32)C1 | Epidermal growth factor receptor (Homo sapiens, UniProt P00533, L858R/T790M) | nM | = | 220
C=CC(=O)N1CCC[C@@H](n2nc(-c3ccc(F)cc3)c3c(N)ncnc32)C1 | Epidermal growth factor receptor (Homo sapiens, UniProt P00533, L858R/T790M) | nM | = | 280
C=CC(=O)N1CCC[C@@H](n2nc(-c3ccccc3)c3c(N)ncnc32)C1 | Epidermal growth factor receptor (Homo sapiens, UniProt P00533, L858R/T790M) | nM | = | 240
CCC(=O)N1CCC[C@@H](n2nc(-c3ccc(C(F)(F)F)cc3)c3c(N)ncnc32)C1 | Epidermal growth factor receptor (Homo sapiens, UniProt P00533, L858R/T790M) | nM | > | 10000
C=CC(=O)N1CCC[C@@H](n2nc(-c3ccc(N(C)C)c4ccccc34)c3c(N)ncnc32)C1 | Epidermal growth factor receptor (Homo sapiens, UniProt P00533, L858R/T790M) | nM | = | 210
CCC(=O)N1CCC[C@@H](n2nc(-c3cccc(F)c3)c3c(N)ncnc32)C1 | Epidermal growth factor receptor (Homo sapiens, UniProt P00533, L858R/T790M) | nM | > | 10000
C=CC(=O)N1CCC[C@@H](n2nc(Cc3ccccc3)c3c(N)ncnc32)C1 | Epidermal growth factor receptor (Homo sapiens, UniProt P00533, L858R/T790M) | nM | = | 10
CCC(=O)N1CCC[C@@H](n2nc(-c3ccc(F)cc3)c3c(N)ncnc32)C1 | Epidermal growth factor receptor (Homo sapiens, UniProt P00533, L858R/T790M) | nM | > | 10000
CCC(=O)N1CCC[C@@H](n2nc(-c3ccccc3)c3c(N)ncnc32)C1 | Epidermal growth factor receptor (Homo sapiens, UniProt P00533, L858R/T790M) | nM | > | 10000
C#Cc1nn([C@@H]2CCCN(C(=O)C=C)C2)c2ncnc(N)c12 | Epidermal growth factor receptor (Homo sapiens, UniProt P00533, L858R/T790M) | nM | = | 690
C=CC(=O)N1CCC[C@@H](n2nc(C#CCC3CCCC3)c3c(N)ncnc32)C1 | Epidermal growth factor receptor (Homo sapiens, UniProt P00533, L858R/T790M) | nM | = | 920

* * *

test: Permeability of the compound at 500 uM incubated for 20 hrs by PAMPA; assay type: physicochemical

compound | permeability
C=CC(=O)N1CCC[C@@H](n2nc(-c3cccc4ccccc34)c3c(N)ncnc32)C1 | 82%
C=CC(=O)N1CCC[C@@H](n2nc(-c3cnc4[nH]ccc4c3)c3c(N)ncnc32)C1 | 27%
C=CC(=O)N1CCC[C@@H](n2nc(-c3cccc(C(F)(F)F)c3)c3c(N)ncnc32)C1 | 76%
C=CC(=O)Nc1cccc(Nc2nc(Nc3ccc(N4CCN(C(C)=O)CC4)cc3OC)ncc2C(F)(F)F)c1 [ROCILETINIB] | 88%
C=CC(=O)N1CCC[C@@H](n2nc(-c3cn(C)c4ccccc34)c3c(N)ncnc32)C1 | 66%
C=CC(=O)Nc1cc(Nc2nccc(-c3cn(C)c4ccccc34)n2)c(OC)cc1N(C)CCN(C)C [OSIMERTINIB] | 112%
C=CC(=O)N1CCC[C@@H](n2nc(-c3ccccc3)c3c(N)ncnc32)C1 | 59%
C=CC(=O)N1CCC[C@@H](n2nc(-c3ccc4ccccc4c3)c3c(N)ncnc32)C1 | 73%
C=CC(=O)N1CCC[C@@H](n2nc(-c3ccc(Oc4ccccc4)cc3)c3c(N)ncnc32)C1 [IBRUTINIB] | 38%
